- study system: Human PCNA (Homo sapiens, UniProt P12004)
- Sequence (P12004 whole entry): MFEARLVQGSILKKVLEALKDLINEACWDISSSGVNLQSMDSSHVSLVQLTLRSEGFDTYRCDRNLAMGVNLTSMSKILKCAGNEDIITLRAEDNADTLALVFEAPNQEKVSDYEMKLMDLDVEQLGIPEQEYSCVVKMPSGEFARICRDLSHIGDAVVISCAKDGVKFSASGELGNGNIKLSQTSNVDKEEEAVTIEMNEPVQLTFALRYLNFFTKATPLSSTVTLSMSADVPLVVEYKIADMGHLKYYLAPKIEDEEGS
- protocol summary: ITC, peptide interaction with human PCNA
- Assay type: binding
- experimental context: ITC 30° C., Human PCNA
- Protocol: The inventors have compared the affinities of the prototypical P7 SC-binding peptide for the bacterial SC and for the eukaryotic functional homolog “Proliferating Cell Nuclear Antigen” PCNA. The same analysis was performed with the DPD1 peptide that contains a well-described specific PCNA Interacting Peptide (PIP) sequence ([…]).
pKd: −log10 of the molar value.
attribute measured: pKd

INSERT INTO assay_data (substance, attribute_measured, experimental_result) VALUES
  ('peptide that contains a well-described specific PCNA Interacting Peptide (PIP) sequence (QKKITDYF) [DPD1]', 'pKd', 6.80);

Data credit: patent US12098217B2
